System: chemotherapy-induced alopecia
Assay: Neonatal rat model of chemotherapy-induced alopecia
Format: in vivo, Sprague Dawley rats
Settings: compounds in 100% DMSO applied topically to the scalp prior to chemotherapy; scored at day 21
Method: Animal Model for Chemoprotection Neonatal rat model of chemotherapy-induced alopecia: Time-pregnant female Sprague Dawley rats were purchased from Charles River Breeding Laboratories. […] Inhibitor efficacy data was analyzed by comparing the % of drug-treated responders and the % of vehicle-treated responders. The amount of hair present on rat scalp at day 21 were scored and averaged for each inhibitor treated rat and ranked as +, ++ and +++.
readout type: Rank (amount of hair present on rat scalp at day 21)

Use the examples below as a reference point.
Query block: For COc1cc(Nc2nccc(-c3cnn4ncccc34)n2)cc(C(F)(F)F)c1 , write its Rank (amount of hair present on rat scalp at day 21).
Result block: +

Query block: For CN1CCN(c2ccc(Nc3nccc(-c4cnn5ncccc45)n3)cc2Cl)CC1 , write its Rank (amount of hair present on rat scalp at day 21).
Result block: +++

Query block: For N#Cc1cccc(Nc2nccc(-c3cnn4ncccc34)n2)c1 , write its Rank (amount of hair present on rat scalp at day 21).
Result block: +++

Query block: For FC(F)(F)c1cccc(Nc2nccc(-c3cnn4ncccc34)n2)c1 , write its Rank (amount of hair present on rat scalp at day 21).
Result block: ++

Attention now shifts to the item below.
Query block: For c1cc(Nc2nccc(-c3cnn4ncccc34)n2)cc(-c2cnco2)c1 , write its Rank (amount of hair present on rat scalp at day 21).
Result block: +
